Entry source: patent US20120214862A1

- Tested on: human Factor 7 mRNA
- ASSAY INFO: Inhibition of human Factor 7 mRNA by 2-10-2 MOE shortmers in HepB3 cells, electroporation, 1,000 nM
- Format: cell-based
- CONDITION SET: electroporation, 1,000 nM oligonucleotide, approximately 24 hours, relative to untreated control cells
In the oligonucleotide strings, read from the 5' end, every base follows the letter of its sugar. An asterisk marks phosphorothioate; unmarked linkages are phosphodiester. Other units and linkages are bracketed, terminal groups are in braces. A string of capitals states the bases alone. e = 2'-O-(2-methoxyethyl) (MOE); [5mC] = 5-methylcytosine; d = 2'-deoxy (DNA)
Mark MET for reported % inhibition of human Factor 7 mRNA of 30% or greater; mark NOT MET for anything smaller.

Before answering, review these 4 worked examples.
>>> label("435682 (antisense eG*eG*dA*dT*dG*dA*dT*dG*dA*d[5mC]*d[5mC]*dT*eG*e[5mC]) [compound 435682]")
"MET"
>>> label("435735 (antisense eT*eG*dG*dT*dG*dA*dT*dG*d[5mC]*dT*dT*d[5mC]*eT*eG) [compound 435735]")
"MET"
>>> label("435748 (antisense eT*e[5mC]*d[5mC]*d[5mC]*dA*dG*dG*dG*dT*d[5mC]*dT*d[5mC]*eT*eG) [compound 435748]")
"NOT MET"
>>> label("435851 (antisense eA*e[5mC]*dA*dG*dG*d[5mC]*d[5mC]*dA*dG*dG*d[5mC]*dT*eG*eG) [compound 435851]")
"NOT MET"

Query block: Quick check: does 435647 (antisense eA*eG*dA*dT*dA*dT*dA*dG*dG*dA*d[5mC]*dT*eG*eG) [compound 435647] have % inhibition of human Factor 7 mRNA greater than or equal to 30%?
Result block: NOT MET

Query block: Quick check: does 435497 (antisense eG*eG*dG*dA*dG*dA*d[5mC]*d[5mC]*d[5mC]*dT*dG*dG*eT*eG) [compound 435497] have % inhibition of human Factor 7 mRNA greater than or equal to 30%?
Result block: NOT MET

Query block: Quick check: does 435742 (antisense eA*eT*dG*dT*dG*dA*dG*dG*dG*dT*dT*d[5mC]*eA*eT) [compound 435742] have % inhibition of human Factor 7 mRNA greater than or equal to 30%?
Result block: NOT MET

Query block: Quick check: does 435648 (antisense eG*eA*dA*dG*d[5mC]*dA*dG*dA*dT*dA*dT*dA*eG*eG) [compound 435648] have % inhibition of human Factor 7 mRNA greater than or equal to 30%?
Result block: NOT MET

Query block: Quick check: does 435839 (antisense eG*eG*dT*d[5mC]*dA*dG*d[5mC]*dT*dG*dG*dT*d[5mC]*eT*eG) [compound 435839] have % inhibition of human Factor 7 mRNA greater than or equal to 30%?
Result block: NOT MET

Query block: Quick check: does 435676 (antisense eG*eA*dT*dT*dT*dT*dG*dT*d[5mC]*dG*dA*dA*eA*e[5mC]) [compound 435676] have % inhibition of human Factor 7 mRNA greater than or equal to 30%?
Result block: NOT MET

Query block: Quick check: does 435482 (antisense eT*eG*dG*dG*dT*d[5mC]*dA*dT*d[5mC]*dA*dG*d[5mC]*e[5mC]*eG) [compound 435482] have % inhibition of human Factor 7 mRNA greater than or equal to 30%?
Result block: MET

Query block: Quick check: does 435670 (antisense e[5mC]*eA*dA*d[5mC]*dA*dG*dG*dA*d[5mC]*d[5mC]*dT*dG*e[5mC]*e[5mC]) [compound 435670] have % inhibition of human Factor 7 mRNA greater than or equal to 30%?
Result block: MET

Query block: Quick check: does 435843 (antisense eG*e[5mC]*dT*dG*dG*dA*dG*d[5mC]*dT*dG*dA*dG*e[5mC]*e[5mC]) [compound 435843] have % inhibition of human Factor 7 mRNA greater than or equal to 30%?
Result block: NOT MET
